- Read-out: ABC Transporter (ABCB1), ABCB1 (gene 5243)
- assayInfo: CLD_ABCB1_48hr: CellzDirect (CLD) Gene Expression Assay for ABC Transporter (ABCB1) at 48 hours (AID 2283695)
- Experimental: CLD_48hr is a cell-based, multiplexed-readout assay that uses hepatocyte, a human liver primary cell, with measurements taken at 48 hours after chemical dosing in a 96-well plate.CLD_ABCB1_48hr is one of 16 assay component(s) measured or calculated from the CLD_48hr assay. […] Furthermore, this assay endpoint can be referred to as a primary readout. […]
Inconclusive results are not listed. Active and inactive are the calls of the source. How the source made its calls: active means hit-call score of the fitted dose curve at least 0.9, where 1 is the maximum; inconclusive means response in the unintended direction; inactive means score below 0.9.
Reply using exactly one outcome from active, inactive

Recorded results for 5 compounds are shown here.
{"columns": ["compound", "className"],
 "data": [
  ["CC[C@H](C)[C@H]1O[C@]2(C=C[C@@H]1C)C[C@@H]1C[C@@H](C/C=C(\\C)[C@@H](O[C@H]3C[C@H](OC)[C@@H](O[C@H]4C[C@H](OC)[C@@H](NC)[C@H](C)O4)[C@H](C)O3)[C@@H](C)/C=C/C=C3\\CO[C@@H]4[C@H](O)C(C)=C[C@@H](C(=O)O1)[C@]34O)O2", "inactive"],
  ["C=C(C)[C@H]1Cc2c(ccc3c2O[C@@H]2COc4cc(OC)c(OC)cc4[C@@H]2C3=O)O1", "inactive"],
  ["C[Si](Cn1cncn1)(c1ccc(F)cc1)c1ccc(F)cc1", "active"],
  ["COc1ccc(C(=CC(=O)N2CCOCC2)c2ccc(Cl)cc2)cc1OC", "active"],
  ["Nc1nc(N)nc(NC2CC2)n1", "inactive"]
]}

Query :: Hey, what did the test say about CC(Oc1cccc(Cl)c1)C(=O)O (centres undefined) ?
Result :: inactive

Query :: Hey, what did the test say about "C#CC(C)(C)NC(=O)c1cc(Cl)cc(Cl)c1" ?
Result :: inactive

Query :: Hey, what did the test say about "CCOP(=S)(OCC)Oc1ccc2c(C)c(Cl)c(=O)oc2c1" ?
Result :: inactive

Query :: Hey, what did the test say about "CC1(C(=O)Nc2ccc(O)c(Cl)c2Cl)CCCCC1" ?
Result :: inactive

###

- assayInfo: APR_HepG2_StressKinase_24hr: Apredica 24-hour HepG2 Assay for Stress Kinase (AID 2282922)
- condition: HepG2 stress kinase (phospho-c-Jun) imaging, actives raise or lower the signal
Activity calls are given as the source filed them. How the source made its calls: active means hit-call score of the fitted dose curve at least 0.9, where 1 is the maximum; inactive means score below 0.9.
Reply using exactly one outcome from label 1 for active, label 0 for inactive

{"columns": ["compound", "className"],
 "data": [
  ["S=C1NCCN1", "label 0"]
]}

Query :: Hey, what did the test say about COP(=O)(OC)OC(Br)C(Cl)(Cl)Br (stereo not drawn) ?
Result :: label 1

Query :: Hey, what did the test say about "CCOP(=S)(OCC)Oc1ccc2c(C)c(Cl)c(=O)oc2c1" ?
Result :: label 0

Query :: Hey, what did the test say about COP(=O)(OC)C(O)C(Cl)(Cl)Cl (stereo not drawn) ?
Result :: label 0

Query :: Hey, what did the test say about "CNC(=O)ON=C(C)SC" ?
Result :: label 0

Query :: Hey, what did the test say about CCOP(=S)(Oc1cnc(C(C)(C)C)nc1)OC(C)C (stereo not drawn) ?
Result :: label 0

Query :: Hey, what did the test say about "Nc1c(Cl)cc([N+](=O)[O-])cc1Cl" ?
Result :: label 0

Query :: Hey, what did the test say about "CCOP(=S)(OCC)SCCSCC" ?
Result :: label 0

###

- Read-out: Macrophage colony-stimulating factor (MCSF), CSF1 (gene 1435)
- assayInfo: BSK_LPS_MCSF: BioMAP Diversity Plus: LPS Assay for Macrophage colony-stimulating factor (MCSF) Biomarker Activity (AID 2283083)
- condition: primary human HUVEC with PBMC; actives raise or lower the signal
The source made the active and inactive calls. Rule for the calls: active = hit-call score of the fitted dose curve at least 0.9, where 1 is the maximum; inactive = score below 0.9.
outcomeMeasure: AC50

{"columns": ["compound", "AC50"],
 "data": [
  ["C[Si](Cn1cncn1)(c1ccc(F)cc1)c1ccc(F)cc1", "14.7 µM (active)"],
  ["CCCCOC(=O)[C@@H](C)Oc1ccc(Oc2ccc(C#N)cc2F)cc1", "inactive"],
  ["CC1=NNC(=O)N(/N=C/c2cccnc2)C1", "inactive"],
  ["CC(C1CC1)C(O)(Cn1cncn1)c1ccc(Cl)cc1 (stereo not given)", "inactive"],
  ["CC(C)=CC1C(C(=O)OCN2C(=O)C3=C(CCCC3)C2=O)C1(C)C (stereo not given)", "34.3 µM (active)"],
  ["CC(COc1ccc(Oc2ccccc2)cc1)Oc1ccccn1 (stereo not given)", "inactive"],
  ["CCOP(=S)(OCC)OC(Cl)C(Cl)(Cl)Cl (stereo not given)", "inactive"],
  ["Cc1cc(C2CC2)nc(Nc2ccccc2)n1", "20.3 µM (active)"],
  ["S=C1NCCN1", "inactive"],
  ["CC(C)N(C(=O)SCC(Cl)=C(Cl)Cl)C(C)C", "29.5 µM (active)"]
]}

Working through the 7 compounds below one at a time, give AC50 for each.
1. CCCSP(=O)(OCC)SCCC
2. CNc1cnn(-c2cccc(C(F)(F)F)c2)c(=O)c1Cl
3. CC1(C(=O)Nc2ccc(O)c(Cl)c2Cl)CCCCC1
4. CSC1=N[C@@](C)(c2ccccc2)C(=O)N1Nc1ccccc1
5. CC(Oc1cccc(Cl)c1)C(=O)O (stereo not given)
6. CSc1nc(NC(C)C)nc(NC(C)C)n1
7. CCOP(=S)(Oc1cnc(C(C)(C)C)nc1)OC(C)C (stereo not given)

Result ::
1. inactive
2. inactive
3. inactive
4. inactive
5. inactive
6. inactive
7. 32.6 µM (active)

Working through the 3 compounds below one at a time, give AC50 for each.
1. CCNc1nc(Cl)nc(NC(C)(C)C#N)n1
2. CCOC(=O)COc1cc(-c2nn(C)c(OC(F)F)c2Cl)c(F)cc1Cl
3. CCCCN(CC)c1c([N+](=O)[O-])cc(C(F)(F)F)cc1[N+](=O)[O-]

Result ::
1: inactive; 2: inactive; 3: 18.2 µM (active)

###

- assayInfo: Tanguay_ZF_120hpf_MORT_legacy: (Legacy) Oregon State University Tanguay Lab 120 Hour Post-fertilization zebrafish Assay for Mortality (AID 2283633)
Calls of active or inactive are those of the source. The calls were made as follows: active = hit-call score of the fitted dose curve at least 0.9, where 1 is the maximum; inconclusive = response in the unintended direction; inactive = score below 0.9.

{"columns": ["molecule", "outcome"],
 "data": [
  ["CSc1nc(NC(C)C)nc(NC(C)C)n1", "inactive"],
  ["CCOP(=S)(Oc1cnc(C(C)(C)C)nc1)OC(C)C (stereo not drawn)", "inactive"],
  ["COc1cc(OC)nc(Sc2cccc(Cl)c2C(=O)O)n1", "inactive"]
]}

###

- Read-out: Bcl-2 (BID) gene, BID (gene 637)
- assayInfo: LTEA_HepaRG_BID: Life Technologies and Expression Analysis (LTEA) Assay for Bcl-2 (BID) gene using HepaRG (AID 2283476)
- condition: mRNA level, 48 h; actives raise or lower the signal
Calls of active or inactive are those of the source. The calls were made as follows: active = hit-call score of the fitted dose curve at least 0.9, where 1 is the maximum; inactive = score below 0.9.
Reply using exactly one outcome from active, inactive

{"columns": ["molecule", "className"],
 "data": [
  ["CN(C)C(=O)Nc1cccc(C(F)(F)F)c1", "active"],
  ["CNc1cnn(-c2cccc(C(F)(F)F)c2)c(=O)c1Cl", "inactive"]
]}

Query :: Hey, what did the test say about CCOP(=S)(OCC)OC(Cl)C(Cl)(Cl)Cl (stereo unspecified) ?
Result :: inactive

Query :: Hey, what did the test say about "Nc1c(Cl)cc([N+](=O)[O-])cc1Cl" ?
Result :: active

Query :: Hey, what did the test say about "CCC(CC)Nc1c([N+](=O)[O-])cc(C)c(C)c1[N+](=O)[O-]" ?
Result :: inactive

###

- Read-out: Plasminogen activator inhibitor-1 (PAI1), SERPINE1 (gene 5054)
- assayInfo: BSK_hDFCGF_PAI1: BioMAP Diversity Plus: hDFCGF Assay for Plasminogen activator inhibitor-1 (PAI1) Biomarker Activity (AID 2283066)
- condition: primary human foreskin fibroblasts; actives raise or lower the signal
Activity calls are given as the source filed them. How the source made its calls: active means hit-call score of the fitted dose curve at least 0.9, where 1 is the maximum; inactive means score below 0.9.
Reply using exactly one outcome from 1 for active, -1 for inactive

Recorded results for 5 molecules are shown here.
{"columns": ["molecule", "className"],
 "data": [
  ["C=C(C)[C@H]1Cc2c(ccc3c2O[C@@H]2COc4cc(OC)c(OC)cc4[C@@H]2C3=O)O1", -1],
  ["CCOC(=O)CC(SP(=O)(OC)OC)C(=O)OCC (stereo not given)", -1],
  ["CC(C)N(C(=O)SCC(Cl)=C(Cl)Cl)C(C)C", 1],
  ["CCCCOC(=O)c1ccccc1C(=O)O", -1],
  ["CCOP(=S)(OCC)SCCSCC", -1]
]}

Query :: Hey, what did the test say about "CCCOc1nn(C(=O)NS(=O)(=O)c2ccccc2C(=O)OC)c(=O)n1C" ?
Result :: -1

Query :: Hey, what did the test say about "Cc1ccn2nc(S(=O)(=O)Nc3c(F)cccc3F)nc2n1" ?
Result :: -1
